Data credit: PubChem BioAssay (NCI)

- System: NCI-H322M lung
- protocol.text: NCI-60 one-dose screen, 48 h
- measurement.context: 10 µM unless noted
- Method: Growth inhibition of the NCI-H322M human Non-Small Cell Lung tumor cell line is measured as a screen for anti-cancer activity. Cells are grown in 96 well plates and exposed to the test compound for 48 hours. Compounds are tested at a single concentration, which is 10^-5 M for most compounds. The reported endpoint is percent growth (GI% or GIPRCNT), where numbers from 0 - 100% represent growth inhibition, and numbers from -100% - 0 represent cell death. […]
This is part of a sample that, as a whole, favours compounds with a hit. Of some 83,000 tested, about 20% had one in any assay. Activity calls are given as the source filed them. How the source made its calls: active means growth percent below 10; inactive means the rest.
API: response.call in label 1 for active, label 0 for inactive

# example entries with known answers
Cc1sc2c(c1C)C(c1ccc(Cl)cc1)=N[C@@H](CC(=O)OC(C)(C)C)c1nnc(C)n1-2; label 0
Cc1ccc(N2COOC3(OOC2)C2CC4CC(C2)CC3C4)cc1; label 0
CC1=C([Te]c2ccc(O)cc2)C(=O)c2ccccc2C1=O; label 0

Problem: Returns: the outcome recorded for COC(=O)[C@@H](C[C@H](Cc1ccccc1)NC(=O)c1csc([C@@H](C[C@H](C(C)C)N(C)C(=O)[C@@H](NC(=O)[C@H]2CCCCN2C)C(C)C)OC(C)=O)n1)NC(=O)OCc1ccccc1 in this assay.
Solution: label 0

Problem: Returns: the outcome recorded for C[C@]12CCc3sc(-c4ccccc4O)nc3C1=CC[C@@H]1[C@@H]2CC[C@]2(C)C(=O)CC[C@@H]12 in this assay.
Solution: label 0

Problem: Returns: the outcome recorded for Cc1cc(C)cc(Nc2nc3c(s2)CC[C@@]2(C)C3=CC[C@@H]3[C@@H]2CC[C@]2(C)C(=O)CC[C@@H]32)c1 in this assay.
Solution: label 0

Problem: Returns: the outcome recorded for COC(=O)[C@@H](C)C[C@H](Cc1ccccc1)NC(=O)c1csc([C@@H](C[C@H](C(C)C)N(C)C(=O)C2(NC(=O)[C@H]3CCCCN3C)CCC2)OC(C)=O)n1 in this assay.
Solution: label 0

Problem: Returns: the outcome recorded for C=C1C[C@](OC)([C@H](O)C(=O)N[C@@H](OC)[C@@H]2C[C@@H](O)C(C)(C)[C@@H](C[C@@H](COC)OC)O2)O[C@H](C)[C@@H]1C in this assay.
Solution: label 1

Problem: Returns: the outcome recorded for Clc1cccc(Cl)c1Cl in this assay.
Solution: label 0
